# Test Summary: logP of the compounds of table 1
# Format: physicochemical
Readout Type: logP
Answer with the value's number alone.

Quickly give me recorded logP for C#CCCOC(=O)Nc1nc(CON=C(C(=O)N(C)CC)c2ccccc2)cs1 [compound 152]
2.80

Quickly give me recorded logP for C#CCC(C)OC(=O)Nc1nc(CON=C(C(=O)N(C)CC)c2ccccc2)cs1 (centres unmarked) [compound 145]
3.09

Quickly give me recorded logP for CC(C)(C)OC(=O)Nc1cccc(CON=C(C#N)c2ccccc2)n1 [compound 1]
4.64

Quickly give me recorded logP for CCCCCOC(=O)Nc1cccc(CON=C(C(=O)OC)c2ccccc2)n1 [compound 27]
3.69

Quickly give me recorded logP for C#CCCOC(=O)Nc1cccc(CON=C(C(=O)N(C)CC)c2ccccc2)n1 [compound 143]
3.04

Quickly give me recorded logP for C#CCCCCOC(=O)Nc1nc(CON=C(C(=O)N(C)CC)c2ccccc2)cs1 [compound 148]
3.29

Quickly give me recorded logP for COc1ccc(OC(=O)Nc2cccc(CON=C(C(=O)N(C)C)c3ccccc3)n2)cc1 [compound 117]
3.25

Quickly give me recorded logP for CCN(C)C(=O)C(=NOCc1csc(N)n1)c1ccccc1 [compound 144]
1.34

Quickly give me recorded logP for C#CCCCCOC(=O)Nc1cccc(CON=C(C(=O)N(C)CC)c2ccccc2)n1 [compound 138]
3.35

Quickly give me recorded logP for CN(C)C(=O)C(=NOCc1cccc(NC(=O)c2ccc(Cl)cc2)n1)c1ccccc1 [compound 114]
3.57

Quickly give me recorded logP for CCCCCOC(=O)Nc1cccc(CON=C(C(=O)N(C)C)c2ccccc2)n1 [Example 99]
3.96

Quickly give me recorded logP for CN(C)C(=O)C(=NOCc1cccc(NC(=O)C(F)(F)Oc2ccccc2)n1)c1ccccc1 [Example 110]
3.73

Quickly give me recorded logP for CCCCCCOC(=O)Nc1cccc(CON=C(C(=O)NC)c2ccccc2)n1 [compound 84]
3.48

Quickly give me recorded logP for C#CCCOC(=O)Nc1cccc(CON=C(C(=O)OC)c2ccccc2)n1 [compound 28]
3.48

Quickly give me recorded logP for CN(C)C(=O)C(=NOCc1csc(NC(=O)C2COc3ccccc3O2)n1)c1ccccc1 (centres unmarked) [Example 129]
3.15

Quickly give me recorded logP for COC(=O)C(=NOCc1cccc(NC(=O)Cc2ccc(OC)cc2)n1)c1ccccc1 [compound 39]
3.69

Quickly give me recorded logP for CNC(=O)C(=NOCc1cccc(NC(=O)c2cccs2)n1)c1ccccc1 [compound 81]
2.57

Quickly give me recorded logP for C#CCCOC(=O)Nc1cccc(CON=C(C(=O)N(C)C)c2ccccc2)n1 [Example 100]
1.83

Quickly give me recorded logP for CNC(=O)C(=NOCc1cccc(NCCC2CCCCC2)n1)c1ccccc1 [compound 82]
2.23

Quickly give me recorded logP for COC(=O)C(=NOCc1cccc(NC(=O)C2COc3ccccc3O2)n1)c1ccccc1 (centres unmarked) [compound 37]
4.16

Quickly give me recorded logP for CC(Oc1ccccc1)C(=O)Nc1cccc(CON=C(C(=O)N(C)C)c2ccccc2)n1 (centres unmarked) [Example 111]
3.50

Quickly give me recorded logP for CCN(C)C(=O)C(=NOCc1cccc(NC(=O)OC(C)(C)C)n1)c1ccccc1 [compound 142]
3.72

Quickly give me recorded logP for CCN(C)C(=O)C(=NOCc1csc(NC(=O)OCCOc2ccccc2)n1)c1ccccc1 [compound 151]
3.48

Quickly give me recorded logP for COc1ccc(CC(=O)Nc2cccc(CON=C(C(=O)N(C)C)c3ccccc3)n2)cc1 [Example 112]
3.00

Quickly give me recorded logP for C#CCC(C)OC(=O)Nc1cccc(CON=C(C(=O)N(C)CC)c2ccccc2)n1 (centres unmarked) [compound 135]
3.31

Quickly give me recorded logP for CCCCCOC(=O)Nc1cccc(CON=C(C(=O)NC)c2ccc(OCc3ccccc3)cc2)n1 [compound 64]
2.65

Quickly give me recorded logP for CCN(C)C(=O)C(=NOCc1csc(NC(=O)c2ccc(Cl)cc2)n1)c1ccccc1 [compound 150]
3.69

Quickly give me recorded logP for C#CCC(C)OC(=O)Nc1nc(CON=C(C(=O)N(C)C)c2ccccc2)cs1 (centres unmarked) [compound 121]
2.84

Quickly give me recorded logP for CNC(=O)C(=NOCc1cccc(NC(=O)OC(C)(C)C)n1)c1ccccc1 [compound 62]
2.88

Quickly give me recorded logP for CNC(=O)C(=NOCc1cccc(NC(=O)C(F)(F)Oc2ccccc2)n1)c1ccccc1 [compound 76]
3.35

Quickly give me recorded logP for C#CCC(C)OC(=O)Nc1cccc(CON=C(C(=O)N(C)C)c2ccccc2)n1 (centres unmarked) [Example 101]
3.07

Quickly give me recorded logP for C=CCCOC(=O)Nc1cccc(CON=C(C(=O)OC)c2ccccc2)n1 [compound 42]
3.94

====

# Test Summary: logP of the compounds of table 1
# Assay type: physicochemical
Readout Type: logP
Answer with the value's number alone.

Quickly give me recorded logP for `CCN(C)C(=O)C(=NOCc1cccc(NC(=O)OCCOc2ccccc2)n1)c1ccccc1`
3.76

Quickly give me recorded logP for `CCN(C)C(=O)C(=NOCc1cccc(NC(=O)c2ccc(Cl)cc2)n1)c1ccccc1`
3.85

Quickly give me recorded logP for `CCCCCOC(=O)Nc1cccc(CON=C(C(=O)NC)c2ccc(Oc3ccccc3)cc2)n1`
2.64

Quickly give me recorded logP for `CN(C)C(=O)C(=NOCc1csc(NC(=O)c2ccc(Cl)cc2)n1)c1ccccc1`
3.41

Quickly give me recorded logP for `CNC(=O)C(=NOCc1cccc(NCCCc2ccccc2)n1)c1ccccc1`
1.94

Quickly give me recorded logP for CC(Oc1ccccc1)C(=O)Nc1nc(CON=C(C(=O)N(C)C)c2ccccc2)cs1 (stereo not drawn)
3.21

Quickly give me recorded logP for `COc1ccc(C(=O)Nc2nc(CON=C(C(=O)N(C)C)c3ccccc3)cs2)cc1`
2.84

Quickly give me recorded logP for `COC(=O)C(=NOCc1cccc(N)n1)c1ccccc1`
1.32

Quickly give me recorded logP for `COc1ccc(CC(=O)Nc2nc(CON=C(C(=O)N(C)C)c3ccccc3)cs2)cc1`
2.88

Quickly give me recorded logP for `CNC(=O)C(=NOCc1cccc(N)n1)c1ccc(OCc2ccccc2)cc1`
1.17

Quickly give me recorded logP for `COC(=O)C(=NOCc1cccc(NCCC2CCCCC2)n1)c1ccccc1`
3.04

Quickly give me recorded logP for `CN(C)C(=O)C(=NOCc1cccc(N)n1)c1ccccc1`
1.10

Quickly give me recorded logP for `C#CCCOC(=O)Nc1nc(CON=C(C(=O)N(C)C)c2ccccc2)cs1`
2.84

Quickly give me recorded logP for `C=CCCOC(=O)Nc1cccc(CON=C(C(=O)N(C)C)c2ccccc2)n1`
3.19

Quickly give me recorded logP for `CC#CCOC(=O)Nc1cccc(CON=C(C(=O)OC)c2ccccc2)n1`
3.67

Quickly give me recorded logP for `C#CCCCCOC(=O)Nc1nc(CON=C(C(=O)N(C)C)c2ccccc2)cs1`
3.06

Quickly give me recorded logP for CNC(=O)C(=NOCc1cccc(NC(=O)C2COc3ccccc3O2)n1)c1ccccc1 (stereo not drawn)
3.06

Quickly give me recorded logP for `CN(C)C(=O)C(=NOCc1csc(NC(=O)OCCOc2ccccc2)n1)c1ccccc1`
3.27

Quickly give me recorded logP for `CN(C)C(=O)C(=NOCc1cccc(NC(=O)OCCOc2ccccc2)n1)c1ccccc1`
3.48

Quickly give me recorded logP for `CNC(=O)C(=NOCc1cccc(N)n1)c1ccccc1`
0.65

Quickly give me recorded logP for CCN(C)C(=O)C(=NOCc1csc(NC(=O)C(C)Oc2ccccc2)n1)c1ccccc1 (stereo not drawn)
3.48

Quickly give me recorded logP for CN(C)C(=O)C(=NOCc1cccc(NC(=O)C2COc3ccccc3O2)n1)c1ccccc1 (stereo not drawn)
3.42

Quickly give me recorded logP for CCN(C)C(=O)C(=NOCc1cccc(NC(=O)C(C)Oc2ccccc2)n1)c1ccccc1 (stereo not drawn)
3.78

Quickly give me recorded logP for `CNC(=O)C(=NOCc1cccc(NC(=O)Cc2ccc(OC)cc2)n1)c1ccccc1`
2.66

Quickly give me recorded logP for `CCN(C)C(=O)C(=NOCc1cccc(NC(=O)Cc2ccc(OC)cc2)n1)c1ccccc1`
3.23

Quickly give me recorded logP for CCN(C)C(=O)C(=NOCc1cccc(NC(=O)C2COc3ccccc3O2)n1)c1ccccc1 (stereo not drawn)
3.69

Quickly give me recorded logP for `CC#CCOC(=O)Nc1cccc(CON=C(C(=O)NC)c2ccccc2)n1`
2.59

Quickly give me recorded logP for `C=CCCOC(=O)Nc1cccc(CON=C(C(=O)NC)c2ccccc2)n1`
2.77

Quickly give me recorded logP for CCN(C)C(=O)C(=NOCc1csc(NC(=O)C2COc3ccccc3O2)n1)c1ccccc1 (stereo not drawn)
3.39

Quickly give me recorded logP for `CCN(C)C(=O)C(=NOCc1csc(NC(=O)Cc2ccc(OC)cc2)n1)c1ccccc1`
3.09
